Where these numbers come from: ChEMBL document CHEMBL1201862

- Tested on: T47D
- experiment.description: NCI tumour cell line growth inhibition, 48 h
Active and inactive are the calls of the source. No stated cut-off is given here; in the data, active = GI50 up to about 1.1 µM and inactive = higher.
property: GI50

| molecule | result |
| --- | --- |
| CCC(CCC(C)C1CCC2C3CC=C4CC(OC5OC(CO)C(O)C(O)C5O)CCC4(C)C3CCC12C)C(C)C (centres undefined) | > 100 µM (inactive) |
| CC1=NN(c2nc(N)nc(C(C)Sc3cc(Cl)c(C)cc3S(N)(=O)=O)n2)C(C)(C)C1 (centres undefined) | > 10 µM (inactive) |
| COc1ccc(/C=C2/C(=O)C(c3ccccc3)N(c3ccccc3)C2=O)cc1OC (centres undefined) | > 10 µM (inactive) |
| O=C1NC(N2CCCCC2)=N/C1=C\c1cccs1 | > 100 µM (inactive) |
| O=C1N[C@H]2C(=O)c3c(Br)sc(Br)c3[C@H]2O1 | 14.3 µM (inactive) |
| C/C(=C\CNc1ncnc2c1ncn2CCC(=O)OC(C)(C)C)CO | > 100 µM (inactive) |

Report GI50 for each item below.
1. O=C(c1ccccc1)c1ccc2[nH]c(-c3c(Cl)c(Cl)c(Cl)c(Cl)c3C(=O)N/N=C\C=C\c3ccccc3)nc2c1
2. O=C1c2c(Br)sc(Br)c2C(=O)C1(O)O
3. O=C(O)C(F)(OC(F)(F)C(F)(OC(F)(F)C(F)(F)C(F)(F)F)C(F)(F)F)C(F)(F)F (centres undefined)
4. COC(=O)C1(Cc2ccccc2)Cc2c(C)ccc(C)c2C1=O (centres undefined)
5. Cc1ccc(C(=O)/C=C2\Nc3ccccc3S\C2=N\CS(=O)(=O)c2ccc(C)cc2)cc1
6. Cn1c(=O)c2nc(CCCCC(=O)O)[nH]c2n(C)c1=O

[out]
1: 16.5 µM (inactive); 2: 21.8 µM (inactive); 3: > 100 µM (inactive); 4: 16.7 µM (inactive); 5: 8.2 µM (inactive); 6: > 100 µM (inactive)

###

- Tested on: SK-MEL-28
- experiment.description: NCI tumour cell line growth inhibition, 48 h
Calls of active or inactive are those of the source. No stated cut-off is given here; in the data, active = GI50 up to about 1.1 µM and inactive = higher.
property: GI50

As a guide, the following entries are already answered.
| molecule | result |
| --- | --- |
| O=c1ccs[nH]1 | 25.1 µM (inactive) |
| CC[C@@]1(OC(=O)CCC(=O)O)C(=O)OCc2c1cc1n(c2=O)Cc2cc3ccccc3nc2-1 | 1.23 µM (inactive) |
| O=C1C(Cl)C(c2ccc(Cl)cc2)N1n1cnc2ccccc2c1=O (stereo unspecified) | > 100 µM (inactive) |
| COc1cccc(NC(=O)/C(CC(=O)CC(c2ccccc2)c2c(O)c3ccccc3oc2=O)=N\NC(C)(C)C)c1OC (stereo unspecified) | > 100 µM (inactive) |
| O=C(NNCC(F)(F)F)c1ccncc1 | > 100 µM (inactive) |

Report GI50 for each item below.
1. CCOC(=O)NC(C(F)(F)F)(C(F)(F)F)P(=O)(OCC(C)C)OCC(C)C
2. Cc1nc2ccccc2c(=O)n1NC(=O)c1ccccn1
3. C/C(=N\NC(N)=O)C(CN1CCOCC1)C(c1ccccc1)c1c(O)c2ccccc2oc1=O (stereo unspecified)

[out]
1. 18 µM (inactive)
2. > 100 µM (inactive)
3. > 100 µM (inactive)

###

- Test system: SN12C
- experiment.description: NCI tumour cell line growth inhibition, 48 h
The source made the active and inactive calls. Cut-off read from the data, not from the text of the source: active = GI50 up to about 1.1 µM and inactive = higher.
Classes to choose from: true (active), false (inactive)

Recorded results for 3 molecules are shown here.
| molecule | label.value |
| --- | --- |
| C=C1[C@H](OCC(C)C)[C@@H](O)[C@@H](OC(=O)c2cccnc2)C(C)(C)/C=C/[C@H](C)[C@H](OC(C)=O)[C@@]2(O)C[C@@](C)(OC(C)=O)[C@H](OC(=O)c3ccccc3)[C@@H]2[C@H]1OC(C)=O | false |
| c1cc(-c2ccsc2-c2ccsc2)cs1 | false |
| C/C(=N/NC(N)=S)c1ccc2ccccc2c1 | false |

[in] Tell me the recorded outcome of this test for COC1OC2=CCC3C(=O)NC(=O)C3C2[C@H](OCc2ccccc2)C1OCc1ccccc1 (stereo not given in full) .
[out] false

[in] What do you get for COC(=O)/C=C/COCC1C2CCC(=O)C21 (stereo not given) ?
[out] false

[in] What do you get for CC(C)=CCCC(C)CCOS(=O)C(F)(F)F (stereo not given) ?
[out] false

[in] What do you get for CC(=O)Nc1ccc(CNc2cc(=O)n(C)c(=O)[nH]2)cc1 ?
[out] false

[in] What do you get for CCN(CCCl)CCCCCNc1c2ccccc2nc2ccc(OC)cc12 ?
[out] true

[in] What do you get for C#CC1(O)CCC2[C@@H]3CCc4cc(Oc5nc(F)nc(-c6c7ccccc7cn6C)n5)ccc4C3CC[C@@]21C (stereo not given in full) ?
[out] false

[in] What do you get for CSc1ncc2c(n1)-c1ccccc1OC2N1CCCCC1 (stereo not given) ?
[out] false
